target: Short transient receptor potential channel 6 (Mus musculus) (UniProt Q61143); test: mouse TRPC6 channel inhibitors, SAR follow-up, HEK293 cells, membrane potential dye, IC50 (AID 504572); conditions: acetylcholine-evoked membrane potential dye, FDSS
Sequence (Q61143 whole entry, looked up): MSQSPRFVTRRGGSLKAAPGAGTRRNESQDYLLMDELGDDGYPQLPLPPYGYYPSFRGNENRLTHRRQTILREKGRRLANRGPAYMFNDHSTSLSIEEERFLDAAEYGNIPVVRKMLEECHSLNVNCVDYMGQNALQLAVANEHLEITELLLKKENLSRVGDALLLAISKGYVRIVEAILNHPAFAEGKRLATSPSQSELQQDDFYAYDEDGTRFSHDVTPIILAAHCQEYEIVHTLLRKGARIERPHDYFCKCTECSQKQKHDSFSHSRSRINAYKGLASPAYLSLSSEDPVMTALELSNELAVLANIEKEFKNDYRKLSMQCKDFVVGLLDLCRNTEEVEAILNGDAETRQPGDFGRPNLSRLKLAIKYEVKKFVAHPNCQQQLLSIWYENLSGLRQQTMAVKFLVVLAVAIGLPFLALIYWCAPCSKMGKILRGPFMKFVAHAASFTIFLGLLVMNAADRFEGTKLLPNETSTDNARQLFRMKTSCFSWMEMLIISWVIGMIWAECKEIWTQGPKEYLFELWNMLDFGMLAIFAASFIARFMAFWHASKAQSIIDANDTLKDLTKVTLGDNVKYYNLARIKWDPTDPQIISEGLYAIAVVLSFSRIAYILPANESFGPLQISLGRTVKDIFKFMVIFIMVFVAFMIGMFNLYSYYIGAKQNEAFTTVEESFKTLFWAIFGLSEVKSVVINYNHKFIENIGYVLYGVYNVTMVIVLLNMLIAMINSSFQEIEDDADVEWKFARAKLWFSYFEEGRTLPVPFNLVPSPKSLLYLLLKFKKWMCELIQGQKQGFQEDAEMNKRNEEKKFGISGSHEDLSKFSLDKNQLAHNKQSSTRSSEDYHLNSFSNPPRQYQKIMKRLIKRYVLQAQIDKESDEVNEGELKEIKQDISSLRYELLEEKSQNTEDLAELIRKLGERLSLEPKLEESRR
Some compounds, each annotated with its measured pIC50.
Keep it numeric: pIC50 is minus log10 of the concentration in mol/L.

mol | pIC50
CCOc1ccccc1CNc1ccc2c(c1)ncn2C(C)(C)C | 5.67
CC(C)(C)n1cnc2cc(NCc3ccccc3Cl)ccc21 | 5.32
COc1ccc(OC)c(CNc2ccc3c(c2)ncn3C(C)(C)C)c1 | 5.57
CC(C)(C)n1cnc2cc(NCc3ccc(Cl)cc3Cl)ccc21 | 5.19
CCOc1ccc(CNc2ccc3c(c2)ncn3C(C)(C)C)cc1 | 5.60

--- query ---
Problem: Enter pIC50 (test system Short transient receptor potential channel 6 (Mus musculus) (UniProt Q61143)) for COc1ccccc1CNc1ccc2c(c1)ncn2C(C)(C)C
Solution: 5.26
